Tested on: Acinetobacter baumannii
Test: Antibacterial activity against carbapenem-resistant Acinetobacter baumannii BAA 1605 assessed as inhibition of bacterial growth incubated for 16 to 18 hrs by CLSI protocol based method
Type: functional
Details: time 16-18 hrs, read-out: MIC100
Recorded endpoint: MIC (µg/mL)
// units = µg/mL; emit number, no label

Fill in: MIC of `O=C(NNc1ccc(Cl)cc1)[C@@H](Cc1ccccc1)N1C(=O)c2cccc3cccc(c23)C1=O` is ___
4

Now the same for `O=C(CCN1C(=O)c2cccc3c(Br)ccc(c23)C1=O)NNc1ccc(Cl)cc1`
4

Moving on to the next molecule: `N#Cc1ccc(NNC(=O)[C@@H](Cc2ccccc2)N2C(=O)c3cccc4cccc(c34)C2=O)cc1`
16

---

Experiment: Selectivity index, ratio of CC50 for cytotoxicity against African green monkey VERO cells to MIC for antibacterial activity against carbapenem-resistant Acinetobacter baumannii BAA 1605 assessed as inhibition of bacterial growth
Assay type: toxicity, cell-based
Settings: read-out: Selectivity Index
selectivity ratio by entry:

Previously resolved entries follow.
O=C(CCN1C(=O)c2cccc3cccc(c23)C1=O)NNc1ccc(Br)cc1 ... > 200
N#Cc1ccc(NNC(=O)CCN2C(=O)c3cccc4cccc(c34)C2=O)cc1 ... > 200
O=C(CCN1C(=O)c2cccc3cccc(c23)C1=O)NNc1ccc(F)cc1 ... 80
COc1cccc2c1C(=O)c1c(O)c3c(c(O)c1C2=O)C[C@@](O)(C(=O)CO)C[C@@H]3O[C@H]1C[C@H](N)[C@H](O)[C@H](C)O1 ... < 1

Now consider the entry below.
Consider the compound `O=C(CCN1C(=O)c2cccc3cccc(c23)C1=O)NNc1ccc(Cl)cc1` and give its measured selectivity ratio.
> 200

---

A collection of compounds and their measured MIC
System: Escherichia coli
Test: Antibacterial activity against Escherichia coli ATCC 25922 assessed as inhibition of bacterial growth incubated for 16 to 18 hrs by CLSI protocol based method
Type: functional
Details: time 16-18 hrs, read-out: MIC100

Please report the recorded MIC for `N#Cc1ccc(NNC(=O)CCN2C(=O)c3cccc4cccc(c34)C2=O)cc1` .
> 64 µg/mL

Now the same for `O=C(CCN1C(=O)c2cccc3cccc(c23)C1=O)NNc1cccc(Br)c1`
> 64 µg/mL

---

System: Acinetobacter baumannii
Experiment: Antibacterial activity against multi-drug resistant Acinetobacter baumannii clinical isolate 11 assessed as inhibition of bacterial growth incubated for 16 to 18 hrs by CLSI protocol based method
Type: functional
Conditions: time 16-18 hrs, read-out: MIC100
Listed below: MIC values for each entry.
Give your result in µg/mL as a bare value.

C[C@H]1COc2c(N3CCN(C)CC3)c(F)cc3c(=O)c(C(=O)O)cn1c23 [LEVOFLOXACIN ANHYDROUS] ... 64
CN(C)c1ccc(O)c2c1C[C@H]1C[C@H]3[C@H](N(C)C)C(O)=C(C(N)=O)C(=O)[C@@]3(O)C(O)=C1C2=O ... 2
O=C(CCN1C(=O)c2cccc3cccc(c23)C1=O)NNc1ccc(F)cc1 ... 2
O=C(CCN1C(=O)c2cccc3cccc(c23)C1=O)NNc1ccc(Br)cc1 ... 4
N#Cc1ccc(NNC(=O)CCN2C(=O)c3cccc4cccc(c34)C2=O)cc1 ... 2

May I ask what MIC has been recorded for `C[C@@H](O)[C@H]1C(=O)N2C(C(=O)O)=C(S[C@@H]3CN[C@H](C(=O)N(C)C)C3)[C@H](C)[C@H]12` ?
64

Moving on to `O=C(CCN1C(=O)c2cccc3cccc(c23)C1=O)NNc1ccc(Cl)cc1`
2

---

Test system: Acinetobacter baumannii
Assay: Antibacterial activity against multi-drug resistant Acinetobacter baumannii clinical isolate 6 assessed as inhibition of bacterial growth incubated for 16 to 18 hrs by CLSI protocol based method
Type: functional
Conditions: time 16-18 hrs, read-out: MIC100
# reported MIC; entries follow
Express your answer in µg/mL, writing the number without its unit.

Example cases with answers are listed next.
O=C(CCN1C(=O)c2cccc3cccc(c23)C1=O)NNc1ccc(F)cc1 ... 4
N#Cc1ccc(NNC(=O)CCN2C(=O)c3cccc4cccc(c34)C2=O)cc1 ... 4

Next, consider the following molecule.
Given the entry `CN(C)c1ccc(O)c2c1C[C@H]1C[C@H]3[C@H](N(C)C)C(O)=C(C(N)=O)C(=O)[C@@]3(O)C(O)=C1C2=O` , report its measured MIC.
4

---

System: Acinetobacter baumannii
Experiment: Antibacterial activity against multi-drug resistant Acinetobacter baumannii clinical isolate 2 assessed as inhibition of bacterial growth incubated for 16 to 18 hrs by CLSI protocol based method
Type: functional
Details: time 16-18 hrs, read-out: MIC100
Known MIC of a selection of compounds
Answer in µg/mL, number only, no unit symbol.

Hello, I am looking for reported MIC with Acinetobacter baumannii for `CN(C)c1ccc(O)c2c1C[C@H]1C[C@H]3[C@H](N(C)C)C(O)=C(C(N)=O)C(=O)[C@@]3(O)C(O)=C1C2=O` . Could you help?
2

Same thing, different compound: `O=C(CCN1C(=O)c2cccc3cccc(c23)C1=O)NNc1ccc(Br)cc1`
0.5

// query: `N#Cc1ccc(NNC(=O)CCN2C(=O)c3cccc4cccc(c34)C2=O)cc1`
2

Try this compound too: `C[C@@H](O)[C@H]1C(=O)N2C(C(=O)O)=C(S[C@@H]3CN[C@H](C(=O)N(C)C)C3)[C@H](C)[C@H]12`
32

Also `O=C(CCN1C(=O)c2cccc3cccc(c23)C1=O)NNc1ccc(Cl)cc1` ?
1

Then this compound: `O=C(CCN1C(=O)c2cccc3cccc(c23)C1=O)NNc1ccc(F)cc1`
2

---

// values below are reported MIC
Test system: Acinetobacter baumannii
Experiment: Antibacterial activity against multi-drug resistant Acinetobacter baumannii clinical isolate 10 assessed as inhibition of bacterial growth incubated for 16 to 18 hrs by CLSI protocol based method
Assay type: functional
Conditions: time 16-18 hrs, read-out: MIC100
Supply the numeric figure in µg/mL, leaving out any unit text.

Worked cases, answers included:
N#Cc1ccc(NNC(=O)CCN2C(=O)c3cccc4cccc(c34)C2=O)cc1 ... 8
C[C@@H](O)[C@H]1C(=O)N2C(C(=O)O)=C(S[C@@H]3CN[C@H](C(=O)N(C)C)C3)[C@H](C)[C@H]12 [MEROPENEM] ... 16
O=C(CCN1C(=O)c2cccc3cccc(c23)C1=O)NNc1ccc(Cl)cc1 ... 2

Given the molecule `O=C(CCN1C(=O)c2cccc3cccc(c23)C1=O)NNc1ccc(Br)cc1` , what is its reported MIC?
0.5

Now this one: `O=C(CCN1C(=O)c2cccc3cccc(c23)C1=O)NNc1ccc(F)cc1`
2

Then what about the molecule CN(C)c1ccc(O)c2c1C[C@H]1C[C@H]3[C@H](N(C)C)C(O)=C(C(N)=O)C(=O)[C@@]3(O)C(O)=C1C2=O [MINOCYCLINE] ?
2

---

We begin with a simple list: items and their reported MIC.
System: Acinetobacter baumannii
Assay: Antibacterial activity against carbapenem-resistant Acinetobacter baumannii BAA 1605 assessed as inhibition of bacterial growth incubated for 16 to 18 hrs by CLSI protocol based method
Format: functional
Conditions: time 16-18 hrs, read-out: MIC100
Reply with just the number (in µg/mL).

Consider the reported MIC for these compounds:
NCC[C@H](O)C(=O)N[C@@H]1C[C@H](N)[C@@H](O[C@H]2O[C@H](CN)[C@@H](O)[C@H](O)[C@H]2O)[C@H](O)[C@H]1O[C@H]1O[C@H](CO)[C@@H](O)[C@H](N)[C@H]1O ... 4
O=C(CCN1C(=O)c2cccc3cccc(c23)C1=O)NNc1ccc(F)cc1 ... 1
O=C(CCN1C(=O)c2cccc3c(Br)ccc(c23)C1=O)NNc1ccc(Br)cc1 ... 4
O=C(CCN1C(=O)c2cccc3cccc(c23)C1=O)NNc1ccccc1 ... 8

Moving on to the next compound.
Requested field: MIC. Item: `O=C(NNc1ccccc1)[C@@H](Cc1ccccc1)N1C(=O)c2cccc3cccc(c23)C1=O`
8

---

Tested on: Acinetobacter baumannii
Assay: Antibacterial activity against multi-drug resistant Acinetobacter baumannii Naval-17 assessed as inhibition of bacterial growth incubated for 16 to 18 hrs by CLSI protocol based method
Type: functional
Settings: time 16-18 hrs, read-out: MIC100
Recorded endpoint: MIC (µg/mL)
Enter your answer as a number in µg/mL; do not include the unit.

O=C(CCN1C(=O)c2cccc3cccc(c23)C1=O)NNc1ccc(Cl)cc1 ... 1
C[C@H]1COc2c(N3CCN(C)CC3)c(F)cc3c(=O)c(C(=O)O)cn1c23 [LEVOFLOXACIN ANHYDROUS] ... 16
N#Cc1ccc(NNC(=O)CCN2C(=O)c3cccc4cccc(c34)C2=O)cc1 ... 2
O=C(CCN1C(=O)c2cccc3cccc(c23)C1=O)NNc1ccc(Br)cc1 ... 1
O=C(CCN1C(=O)c2cccc3cccc(c23)C1=O)NNc1ccc(F)cc1 ... 2

Which MIC reading was recorded for the compound `C[C@@H](O)[C@H]1C(=O)N2C(C(=O)O)=C(S[C@@H]3CN[C@H](C(=O)N(C)C)C3)[C@H](C)[C@H]12` ?
4

What would you report for `CN(C)c1ccc(O)c2c1C[C@H]1C[C@H]3[C@H](N(C)C)C(O)=C(C(N)=O)C(=O)[C@@]3(O)C(O)=C1C2=O` ?
16
